target: UniProtKB P41145; test: Displacement of [3H]diprenorphine from human opioid kappa receptor expressed in CHO cells after 120 mins by scintillation counting; type: cell-based
Answer each item with its documented log10 Ki.
The common logarithm of Ki in nM is what is listed.

compound	log10 Ki
NC(=O)c1ccc(Oc2ccc(CN3CCCC3c3cccnc3)cc2)nc1 (racemic)	0.17

Hey, quick one: what's log10 Ki for each of these?
1. Cc1cc(C)cc([C@@H]2CCCN2Cc2ccc(Oc3ccc(C(N)=O)cc3F)cc2)c1
2. NC(=O)c1ccc(Oc2ccc(CN3CCCC3c3cccc(F)c3)cc2)c(F)c1 (racemic)
3. NC(=O)c1ccc(Oc2ccc(CN3CCC[C@@H]3c3cccnc3)cc2)c(Cl)c1
4. Cc1cc(C)cc([C@H]2CCCN2Cc2ccc(Oc3ccc(C(N)=O)cc3F)cc2)c1

Result:
1. -0.02
2. -0.21
3. 1.65
4. 1.15

---

Ki, Mu-type opioid receptor (Homo sapiens, UniProt P35372): measured values
Numbers only, in nM.

Consider the reported Ki for these compounds:
compound	Ki / nM
NC(=O)c1ccc(Oc2ccc(CN3CCC[C@H]3c3cccc(F)c3)cc2)c(F)c1	35.8
CC1(C)CN(Cc2ccc(Oc3ccc(C(N)=O)cn3)cc2)C1c1ccccc1 (racemic)	52.7
NC(=O)c1ccc(Oc2ccc(CN3CCC[C@H]3c3cccnc3)cc2)c(Cl)c1	25.8
Cc1cc(C)cc([C@@H]2CCCN2Cc2ccc(Oc3ccc(C(N)=O)cc3F)cc2)c1	22.7
CC(C)[C@@H](CN1CC[C@@](C)(c2cccc(O)c2)[C@@H](C)C1)NC(=O)[C@H]1Cc2ccc(O)cc2CN1C	30.8

Hey, quick one: what's Ki for each of these?
1. NC(=O)c1ccc(Oc2ccc(CN3CCCC3c3cccnc3)cc2)c(Cl)c1 (racemic)
2. COC(=O)N1CCN(C(=O)Cc2ccc(Cl)c(Cl)c2)[C@H](CN2CCCC2)C1
3. NC(=O)c1ccc(Oc2ccc(CN3CCCC3c3cccnc3)cc2)nc1 (racemic)
4. Cc1cc(C)cc([C@H]2CCCN2Cc2ccc(Oc3ccc(C(N)=O)cc3F)cc2)c1

Result:
31.5
34.7
39.6
101

---

test system: HEK293; assay: Selectivity ratio of Ki for human opioid delta receptor expressed in HEK293 cells to Ki for human opioid kappa receptor expressed in CHO cells; format: cell-based
Classify by measured Ratio Ki: True if it is equal to or exceeds 300, False if it is smaller.

Solved entries (count: 3):
molecule	label
NC(=O)c1ccc(Oc2ccc(CNCc3ccccc3)cc2)nc1	False
CC(C)[C@@H](CN1CC[C@@](C)(c2cccc(O)c2)[C@@H](C)C1)NC(=O)[C@H]1Cc2ccc(O)cc2CN1C	True
Cc1cc(C)cc([C@H]2CCCN2Cc2ccc(Oc3ccc(C(N)=O)cc3F)cc2)c1	False

Request: Confirm if Ratio Ki reported for the molecule NC(=O)c1ccc(Oc2ccc(CN3CCC[C@H]3c3cccnc3)cc2)c(Cl)c1 is 300 or above.
Result: False

Request: Confirm if Ratio Ki reported for the molecule Cc1cc(C)cc([C@@H]2CCCN2Cc2ccc(Oc3ccc(C(N)=O)cc3F)cc2)c1 [ATICAPRANT] is 300 or above.
Result: False

Request: Confirm if Ratio Ki reported for the molecule COC(=O)N1CCN(C(=O)Cc2ccc(Cl)c(Cl)c2)[C@H](CN2CCCC2)C1 is 300 or above.
Result: True

Request: Confirm if Ratio Ki reported for the molecule NC(=O)c1ccc(Oc2ccc(CN3CCCC3c3cccnc3)cc2)c(Cl)c1 (racemic) is 300 or above.
Result: True

Request: Confirm if Ratio Ki reported for the molecule NC(=O)c1ccc(Oc2ccc(CN3CCC[C@H]3c3cccc(F)c3)cc2)c(F)c1 is 300 or above.
Result: True

Request: Confirm if Ratio Ki reported for the molecule NC(=O)c1ccc(Oc2ccc(CN3CCCC3c3cccnc3)cc2)nc1 (racemic) is 300 or above.
Result: True

---

molecular target: Kappa-type opioid receptor (Homo sapiens); test: Antagonist activity at human opioid kappa receptor expressed in CHO cells assessed as inhibition of U69593-induced [35S]GTP-gamma-S binding after 4 hrs by scintillation counting; assay type: functional, cell-based
Sequence (P41145 whole entry): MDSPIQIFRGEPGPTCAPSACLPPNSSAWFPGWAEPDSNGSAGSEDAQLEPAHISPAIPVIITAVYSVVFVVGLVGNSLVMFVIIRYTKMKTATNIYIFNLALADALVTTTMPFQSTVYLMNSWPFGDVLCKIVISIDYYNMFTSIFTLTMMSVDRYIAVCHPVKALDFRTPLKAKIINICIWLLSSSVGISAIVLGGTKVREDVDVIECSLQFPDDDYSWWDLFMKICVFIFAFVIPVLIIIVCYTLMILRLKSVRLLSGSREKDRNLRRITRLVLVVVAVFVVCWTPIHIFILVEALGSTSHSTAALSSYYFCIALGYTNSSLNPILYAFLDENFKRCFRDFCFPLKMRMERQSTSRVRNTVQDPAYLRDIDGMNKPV
Answer each item with its documented Kb.
Answers are plain numbers, in nM.

Consider the reported Kb for these compounds:
compound	Kb, nM
NC(=O)c1ccc(Oc2ccc(CN3CCC[C@@H]3c3cccc(F)c3)cc2)c(F)c1	88.7
CC(C)[C@@H](CN1CC[C@@](C)(c2cccc(O)c2)[C@@H](C)C1)NC(=O)[C@H]1Cc2ccc(O)cc2CN1C	0.162

Please turn your attention to the following entry.
Request: For NC(=O)c1ccc(Oc2ccc(CN3CCCC3c3ccccc3)cc2)nc1 (racemic) , what is its reported Kb?
Result: 17

---

target: Mu-type opioid receptor (Homo sapiens); assay: Antagonist activity at human opioid mu receptor expressed in CHO cells assessed as inhibition of DAMGO-induced [35S]GTP-gamma-S binding after 4 hrs by scintillation counting; format: functional, cell-based
Sequence (P35372 whole entry): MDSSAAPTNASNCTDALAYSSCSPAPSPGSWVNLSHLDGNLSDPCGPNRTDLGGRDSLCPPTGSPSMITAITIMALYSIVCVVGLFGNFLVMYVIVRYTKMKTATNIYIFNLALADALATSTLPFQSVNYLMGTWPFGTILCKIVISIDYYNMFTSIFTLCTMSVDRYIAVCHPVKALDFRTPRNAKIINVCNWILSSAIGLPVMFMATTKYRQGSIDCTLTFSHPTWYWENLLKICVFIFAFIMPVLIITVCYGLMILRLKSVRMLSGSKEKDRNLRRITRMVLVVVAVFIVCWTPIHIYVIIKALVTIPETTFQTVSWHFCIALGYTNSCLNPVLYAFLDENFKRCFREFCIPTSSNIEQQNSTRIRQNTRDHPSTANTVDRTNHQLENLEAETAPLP
quantity.kind: Kb

Consider the reported Kb for these compounds:
compound	quantity.kind	reported.measurement
CC(C)[C@@H](CN1CC[C@@](C)(c2cccc(O)c2)[C@@H](C)C1)NC(=O)[C@H]1Cc2ccc(O)cc2CN1C	Kb	11.2 nM
NC(=O)c1ccc(Oc2ccc(CN3CCCC3c3cccc(F)c3)cc2)c(F)c1 (racemic)	Kb	63.5 nM
NC(=O)c1ccc(Oc2ccc(CN3CCC[C@@H]3c3cccc(F)c3)cc2)c(F)c1	Kb	> 500 nM
NC(=O)c1ccc(Oc2ccc(CN3CCC[C@H]3c3cccnc3)cc2)c(Cl)c1	Kb	6.8 nM
NC(=O)c1ccc(Oc2ccc(CN3CCC[C@H]3c3cccc(F)c3)cc2)c(F)c1	Kb	21.3 nM
NC(=O)c1ccc(Oc2ccc(CN3CCCC3c3ccccc3)cc2)nc1 (racemic)	Kb	150 nM
CC1(C)CN(Cc2ccc(Oc3ccc(C(N)=O)cn3)cc2)[C@@H]1c1ccccc1	Kb	36.6 nM
NC(=O)c1ccc(Oc2ccc(CNCc3ccccc3)cc2)nc1	Kb	3.8 nM

Request: Notebook: pull reported Kb for Mu-type opioid receptor (Homo sapiens), entry Cc1cc(C)cc([C@H]2CCCN2Cc2ccc(Oc3ccc(C(N)=O)cc3F)cc2)c1
Result: 69.6 nM

---

Ki, UniProt:P41145: measured values
Answers are plain numbers, in nM.

Consider the reported Ki for these compounds:
cpd.smiles	quantity.kind	reported.measurement
COC(=O)N1CCN(C(=O)Cc2ccc(Cl)c(Cl)c2)[C@H](CN2CCCC2)C1	Ki	0.502
CC1(C)CN(Cc2ccc(Oc3ccc(C(N)=O)cn3)cc2)[C@@H]1c1ccccc1	Ki	1.05
CC(C)[C@@H](CN1CC[C@@](C)(c2cccc(O)c2)[C@@H](C)C1)NC(=O)[C@H]1Cc2ccc(O)cc2CN1C	Ki	0.153

Please turn your attention to the following entry.
Request: For NC(=O)c1ccc(Oc2ccc(CN3CCC[C@H]3c3cccnc3)cc2)c(Cl)c1 , what is its reported Ki?
Result: 0.722

---

Answer each item with its documented Ratio Ki.
tested on: HEK293; assay: Selectivity ratio of Ki for human opioid delta receptor expressed in HEK293 cells to Ki for human opioid kappa receptor expressed in CHO cells; assay type: cell-based

Consider the reported Ratio Ki for these molecules:
molecule	target.or.system	Ratio Ki
NC(=O)c1ccc(Oc2ccc(CN3CCCC3c3cccc(F)c3)cc2)c(F)c1 (racemic)	HEK293	303
NC(=O)c1ccc(Oc2ccc(CN3CCC[C@@H]3c3cccnc3)cc2)c(Cl)c1	HEK293	> 11

Hey, quick one: what's Ratio Ki for each of these?
1. NC(=O)c1ccc(Oc2ccc(CN3CCCC3c3ccccc3)cc2)nc1 (racemic)
2. NC(=O)c1ccc(Oc2ccc(CN3CCC[C@@H]3c3cccc(F)c3)cc2)c(F)c1

Result:
1: > 50; 2: > 9
